Origin of values: patent US20080318910A1

test: physchem; details: aqueous buffer, solubility, pH higher than 4.8
measured.quantity: solubility

stdin: Could you tell me which solubility is on file for `C/C=C/C=C/C(=O)O` ?
stdout: ~333 mg/mL

====

assay: physchem; conditions: pH 2, simulated gastric fluid
measured.quantity: solubility

stdin: Could you tell me which solubility is on file for CCC(COC(=O)c1cc(OC)c(OC)c(OC)c1)(c1ccccc1)N(C)C (stereo not shown) [Trimebutine] ?
stdout: ~11 mg/mL
